# measurement_target: CXCR3 (Homo sapiens)
# assay_notes: CXCR3 Ca2+ mobilization (FLIPR), stable hCXCR3-CHO cell line, I-TAC stimulated
# Format: cell-based
# Parameters: host or cells: CHO cells stably expressing hCXCR3
# reported_conditions: hCXCR3-CHO cells, I-TAC 100 nM stimulated Ca2+ response; read-out: Ca-ITAC
pIC50: −log10 of the molar value.
endpoint: pIC50

> print(dat)
                                   compound    measurement.target  endpoint.result
1  O=S(=O)(c1ccc(Cl)cc1)N(Cc1ccc(-c2nnn[nH]2)cc1)Cc1cc(Cl)ccc1F  CXCR3 (Homo sapiens)             6.70
2  N#Cc1ccc(S(=O)(=O)N(Cc2ccc(C(=O)NCC(O)c3ccccc3)cc2)Cc2ccccn2)cc1 (stereo not shown)  CXCR3 (Homo sapiens)             7.70
3  CC(CNC(=O)c1ccc(CN(Cc2cccnc2)S(=O)(=O)c2ccc(C#N)cc2)cc1)c1ccccc1 (stereo not shown)  CXCR3 (Homo sapiens)             5.90
4  CC(C)(Cc1ccccc1)N(Cc1ccc(-c2nnn[nH]2)cc1)S(=O)(=O)c1ccc(Cl)cc1  CXCR3 (Homo sapiens)             5.52
5  O=S(=O)(c1ccc(Cl)cc1Cl)N(Cc1ccc(-c2nnn[nH]2)cc1)Cc1ccccn1  CXCR3 (Homo sapiens)             5.52
6  CCOc1ccc(C2(NC(=O)c3ccc(CN(Cc4ccccn4)S(=O)(=O)c4ccc(Cl)cc4)cc3)CC2)cc1  CXCR3 (Homo sapiens)             6.07
7  N#Cc1ccc(S(=O)(=O)N(Cc2ccc(C(=O)NC(CO)C(O)c3ccccc3)cc2)Cc2cccnc2)cc1 (stereo not shown)  CXCR3 (Homo sapiens)             5.70

* * *

# measurement_target: CXCR3 (Homo sapiens, UniProt P49682)
# assay_notes: CXCR3 Ca2+ mobilization (FLIPR), stable hCXCR3-CHO cell line, I-TAC stimulated
# Type: cell-based
# Set-up: host or cells: CHO cells stably expressing hCXCR3
# reported_conditions: hCXCR3-CHO cells, I-TAC 100 nM stimulated Ca2+ response; read-out: Ca-ITAC
API: label(entry) gives MET if the entry's IC50 is strictly smaller than 3000 nM; on equality or larger values it gives NOT MET.

> print(dat)
                                    compound  category.label
 1  COc1cc(OC)nc(CN(Cc2ccc(C(=O)O)cc2)S(=O)(=O)c2ccc(Cl)cc2)n1 [Example 328]         NOT MET
 2  N#Cc1ccc(CN(Cc2ccccn2)S(=O)(=O)c2ccc([N+](=O)[O-])cc2)cc1 [Example 172]             MET
 3  N#Cc1ccc(S(=O)(=O)N(Cc2ccc(C(=O)NCc3cccnc3)cc2)Cc2ccccn2)cc1 [Example 136]         NOT MET
 4  O=C(Cc1cccc(Cl)c1)Nc1ccc(CN(Cc2ccccn2)S(=O)(=O)c2ccc(Cl)cc2)cc1 [Example 160]             MET
 5  Cc1cc(S(=O)(=O)N(Cc2ccc(-c3nnn[nH]3)cc2)Cc2ccccn2)c(F)cc1Cl [Example 79]         NOT MET
 6  O=S(=O)(c1ccccc1-c1ccccc1)N(Cc1ccc(-c2nnn[nH]2)cc1)Cc1ccccn1 [Example 253]         NOT MET
 7  O=S(=O)(c1ccc(Cl)cc1)N(Cc1ccc(-c2nnn[nH]2)cc1)Cc1ccccc1-c1ccccc1 [Example 103]         NOT MET
 8  N#Cc1ccc(S(=O)(=O)N(Cc2ccc(-c3nnn[nH]3)c(F)c2)Cc2ccccc2F)cc1 [Example 81]             MET
 9  Cn1c(CNC(=O)c2ccc(CN(Cc3ccccn3)S(=O)(=O)c3ccc(C#N)cc3)cc2)nc2ccccc21 [Example 143]             MET
10  COC(=O)c1ccc(CNC(=O)c2ccc(CN(Cc3ccccn3)S(=O)(=O)c3ccc(Cl)cc3)cc2)cc1 [Example 132]             MET
11  C[C@@H](c1ccc(NC(=O)C2(c3ccccc3)CC2)cc1)N(Cc1ccccn1)S(=O)(=O)c1ccc(C#N)cc1 [Example 167]             MET
12  N#Cc1ccc(S(=O)(=O)N(Cc2ccc(C(=O)NCc3ccccn3)cc2)Cc2ccccn2)cc1 [Example 135]             MET
13  O=C(Nc1ccc(CN(Cc2ccccn2)S(=O)(=O)c2ccc(Cl)cc2)cc1)C(O)c1ccccc1 (stereo not drawn) [Example 170]             MET
14  O=S(=O)(c1ccc(Cl)cc1)N(Cc1ccc(-c2nnn[nH]2)cc1)Cc1c(F)cccc1F [Example 62]             MET
15  CC(=O)NC(C(=O)Nc1ccc(CN(Cc2ccccn2)S(=O)(=O)c2ccc(Cl)cc2)cc1)c1ccccc1 (stereo not drawn) [Example 185]             MET
16  N#Cc1ccc(S(=O)(=O)N(Cc2ccc(C(=O)NCC3CC3)cc2)Cc2ccccn2)cc1 [Example 43]         NOT MET
17  N#Cc1ccc(S(=O)(=O)N(Cc2ccc(C(=O)NC3(c4cccc(C#N)c4)CC3)cc2)Cc2cccnc2)cc1 [Example 111]             MET
18  CCOc1ccc(S(=O)(=O)N(Cc2ccc(C(=O)OC)c(OC)c2)Cc2ccccn2)cc1 [Example 188]         NOT MET
19  O=S(=O)(c1ccc(OC(F)(F)F)cc1)N(Cc1ccc(-c2nnn[nH]2)cc1)Cc1ccccn1 [Example 120]             MET
20  CC(CNC(=O)c1ccc(CN(Cc2ccccn2)S(=O)(=O)c2ccc(C#N)cc2)cc1)c1ccccc1 (stereo not drawn) [Example 98]             MET
21  O=C(Nc1ccc(CN(Cc2ccccn2)S(=O)(=O)c2ccc(Cl)cc2)cc1)C1(c2ccccc2)CC1 [Example 162]             MET
22  CCOc1ccc(S(=O)(=O)N(Cc2ccc(C(=O)N[C@H]3[C@@H]4CN(C(=O)c5ccc(OC(F)(F)F)cc5)C[C@@H]43)cc2)Cc2cccnc2)cc1 [Example 116]             MET
23  O=C(NC(C(=O)O)c1ccccc1)c1ccc(CN(Cc2ccccn2)S(=O)(=O)c2ccc(Cl)cc2)cc1 (stereo not drawn) [Example 151]             MET
24  O=S(=O)(c1ccc(Cl)cc1)N(Cc1ccc(-c2nnn[nH]2)cc1)Cc1cc2ccccc2cn1 [Example 76]             MET
25  Cc1ccccc1S(=O)(=O)N(Cc1ccc(C#N)cc1)Cc1ccccn1 [Example 287]         NOT MET
26  COC(=O)c1ccc(S(=O)(=O)N(Cc2ccc(C(=O)NC3(c4ccccc4)CC3)cc2)Cc2ccccn2)cc1 [Example 150]             MET
27  CCOc1ccc(S(=O)(=O)N(Cc2ccc(C(=O)O)c(OC)c2)Cc2ccccn2)cc1 [Example 346]         NOT MET

* * *

# measurement_target: CXCR3 (Homo sapiens, UniProt P49682)
# Sequence (P49682 1-368): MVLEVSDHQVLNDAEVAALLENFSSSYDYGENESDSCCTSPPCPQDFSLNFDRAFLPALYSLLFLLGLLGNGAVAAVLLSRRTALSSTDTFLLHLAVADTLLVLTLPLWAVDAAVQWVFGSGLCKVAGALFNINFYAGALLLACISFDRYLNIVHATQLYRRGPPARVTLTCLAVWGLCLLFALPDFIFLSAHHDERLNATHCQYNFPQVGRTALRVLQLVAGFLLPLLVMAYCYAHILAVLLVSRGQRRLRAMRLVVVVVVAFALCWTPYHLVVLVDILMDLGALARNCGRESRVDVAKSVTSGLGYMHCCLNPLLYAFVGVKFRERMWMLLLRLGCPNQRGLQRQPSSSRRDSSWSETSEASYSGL
# assay_notes: Chemotaxis assay ITAC (CXCL11), L1.2-CXCR3 cells
# Assay type: cell-based
# Parameters: expressed in transfected cells
# reported_conditions: 1 nM CXCL11 (I-TAC), 4 hours
API: label(entry) gives yes if the entry's IC50 is strictly smaller than 2 µM; on equality or larger values it gives no.

> print(dat)
                                    compound  category.label
 1  O=S(=O)(c1ccc(Cl)cc1)N(Cc1ccccc1)Cc1ccc(-c2nnn[nH]2)cc1 [Example 121]              no
 2  CCOc1ccc(S(=O)(=O)N(Cc2ccc(C(=O)O)c(F)c2)Cc2ccccn2)cc1 [Example 66]              no
 3  Cc1nnc(CNC(=O)c2ccc(CN(Cc3ccccn3)S(=O)(=O)c3ccc(C#N)cc3)cc2)o1 [Example 142]              no
 4  N#Cc1ccc(S(=O)(=O)N(Cc2ccc(C(=O)O)c(F)c2)Cc2ccccn2)cc1 [Example 67]              no
 5  O=C(NC1(c2ccccc2)CC1)c1ccc(CN(Cc2ccccn2)S(=O)(=O)c2ccc(Cl)cc2)cc1 [Example 40]             yes
 6  O=S(=O)(c1cccc(-c2ccccc2)c1)N(Cc1ccc(-c2nnn[nH]2)cc1)Cc1ccccn1 [Example 166]              no
 7  O=C(NC1(c2cccc(Cl)c2)CC1)c1ccc(CN(Cc2ccccn2)S(=O)(=O)c2ccc(Cl)cc2)cc1 [Example 122]             yes
 8  N#Cc1ccc(S(=O)(=O)N(Cc2ccccn2)C2(c3ccc(C(=O)NC4(c5ccccc5)CC4)cc3)CC2)cc1 [Example 176]              no
 9  CC(C)(C)c1nc(CN(Cc2ccc(-c3nnn[nH]3)cc2)S(=O)(=O)c2ccc(Cl)cc2)no1 [Example 69]             yes
10  CCOc1ccc(S(=O)(=O)N(Cc2ccc(C(=O)NC3(c4ccc(Cl)cc4)CC3)cc2)Cc2ccccn2)cc1 [Example 127]             yes
11  N#Cc1ccc(S(=O)(=O)N(Cc2ccc(C(=O)NC3(c4ccc(Cl)cc4)CC3)cc2)Cc2ccccn2)cc1 [Example 126]             yes
12  O=S(=O)(c1ccc(Cl)cc1)N(Cc1ccccn1)Cc1ccc(-c2nnn[nH]2)cc1F [Example 57]             yes
13  CCOc1ccc(S(=O)(=O)N(Cc2ccc(-c3nnn[nH]3)c(F)c2)Cc2ccccn2)cc1 [Example 80]             yes
14  N#Cc1ccc(S(=O)(=O)N(Cc2ccc(-c3nnn[nH]3)c(F)c2)Cc2ccccc2F)cc1 [Example 81]             yes
